# TEST PROTOCOL: NCI Yeast Anticancer Drug Screen. Data for the rad50 strain (AID 155)
# CONDITIONS USED: S. cerevisiae rad50 strain growth inhibition; at 100.0 µM; hits give high values
This is part of a sample that, as a whole, favours compounds with a hit. Of some 79,000 tested, about 15% had one in any assay.
Label rule not met if growth inhibition falls below 80%; label rule met in every other case.

Check this compound for growth inhibition at or above 80%: O=C(c1ccccc1)C1C(c2ccccc2[N+](=O)[O-])N1C1CCCCC1 (stereo not given)
rule met

Also CCCCCCCCCCCCCCCCP(=O)(O)OP(=O)(O)OCC1OC(n2ccc(N)nc2=O)C(O)C1O (stereo not given) , if possible.
rule not met

Moving on to the next compound: "NNc1ccccc1Cl"
rule met

Moving on to the next compound: C[C@]12CCC(=O)C=C1CC[C@@H]1C2CC[C@@]2(C)C1CC[C@@H]2OC(=O)C12OC1CCC2=O (stereo not given in full)
rule met

Also "CC(=O)O/C(=C1\C[C@H]2[C@@H]3CC=C4C[C@@H](OC(C)=O)CC[C@]4(C)[C@H]3CC[C@]2(C)C1=O)C(F)(F)F" , if possible.
rule not met

Proceed to "O=C(O)CCCc1cc(I)c(N(CCCl)CCCl)c(I)c1"
rule met

Now this one: C[C@]12CCc3nonc3C1CC[C@@H]1C2CC[C@]2(C)C(=O)CCC12 (stereo not given in full)
rule not met

What do you have for "N#CC(C#N)=Cc1ccc(C#N)cc1" ?
rule not met

Queued: "COc1ccc(/C=C(/C)[N+](=O)[O-])cc1"
rule met

Then this compound: "CC[C@](O)(C(=O)O)c1cc2n(c(=O)c1CO)Cc1cc3ccccc3nc1-2"
rule met
